assay target: FXR (Homo sapiens, UniProt Q96RI1)
Construct: expressed in transfected cells; host or cells: HepG2
Sequence (Q96RI1 whole entry, species assumed): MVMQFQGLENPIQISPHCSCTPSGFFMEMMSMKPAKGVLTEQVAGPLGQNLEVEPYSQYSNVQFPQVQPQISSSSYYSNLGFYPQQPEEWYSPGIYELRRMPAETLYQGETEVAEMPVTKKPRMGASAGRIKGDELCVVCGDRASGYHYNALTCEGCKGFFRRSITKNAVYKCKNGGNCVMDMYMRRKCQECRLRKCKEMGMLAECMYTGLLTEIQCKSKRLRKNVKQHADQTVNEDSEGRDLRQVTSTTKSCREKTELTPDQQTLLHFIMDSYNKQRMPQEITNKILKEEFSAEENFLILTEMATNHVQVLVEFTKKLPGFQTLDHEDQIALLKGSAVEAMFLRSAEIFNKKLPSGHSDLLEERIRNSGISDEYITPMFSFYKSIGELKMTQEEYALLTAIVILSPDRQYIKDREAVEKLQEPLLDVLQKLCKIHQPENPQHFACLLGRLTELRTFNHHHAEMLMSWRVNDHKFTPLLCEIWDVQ
Sequence (P19793 whole entry partner, species assumed): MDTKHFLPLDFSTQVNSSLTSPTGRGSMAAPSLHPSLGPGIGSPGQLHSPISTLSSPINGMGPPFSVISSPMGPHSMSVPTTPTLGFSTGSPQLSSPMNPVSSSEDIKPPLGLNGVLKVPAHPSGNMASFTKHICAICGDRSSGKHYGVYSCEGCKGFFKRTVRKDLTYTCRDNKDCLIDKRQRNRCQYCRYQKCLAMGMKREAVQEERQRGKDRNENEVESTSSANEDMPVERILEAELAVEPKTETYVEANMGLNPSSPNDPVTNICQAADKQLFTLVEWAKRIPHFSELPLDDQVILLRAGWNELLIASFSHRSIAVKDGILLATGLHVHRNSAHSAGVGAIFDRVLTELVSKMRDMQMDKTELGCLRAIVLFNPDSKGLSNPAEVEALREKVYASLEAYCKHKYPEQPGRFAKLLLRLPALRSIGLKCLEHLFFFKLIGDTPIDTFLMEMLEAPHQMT
assay protocol: FXR mediated transactivation (luciferase reporter) in transfected HepG2 cells
Type: cell-based
assay conditions: each compound at 10 microM, transactivation activity of CDCA on FXR = 100%
endpoint label: FXR (% of activity in comparison to 10 μM CDCA) (%)
Write the number in % without appending the unit.

Observe how each entry below is paired with its result.
- compound: "CC[C@H]1[C@@H](O)[C@@H]2[C@H](CC[C@]3(C)[C@@H]([C@H](C)CCCO)CC[C@@H]23)[C@@]2(C)CC[C@H](O)C[C@@H]12 [BAR706, 6α-ethyl-3β,7α-dihydroxy-5β-cholan-24-ol]"
  assay target: "FXR (Homo sapiens, UniProt Q96RI1)"
  unit symbol: "%"
  number: 153
- compound: "CC[C@@H]1[C@@H](O)[C@@H]2[C@H](CC[C@]3(C)[C@@H]([C@H](C)CCCO)CC[C@@H]23)[C@@]2(C)CC[C@H](O)C[C@@H]12 [BAR709, 6β-ethyl-3β,7α-dihydroxy-5β-cholan-24-ol]"
  assay target: "FXR (Homo sapiens, UniProt Q96RI1)"
  unit symbol: "%"
  number: 33.7

Input C[C@H](CCCCC(=O)O)[C@H]1CCC2C3C(CC[C@@]21C)[C@@]1(C)CC[C@@H](O)C[C@H]1C[C@@H]3O (stereo partly drawn) [BAR305] . Output FXR (% of activity in comparison to 10 μM CDCA): 0

---

assay target: FXR (Homo sapiens, UniProt Q96RI1)
Construct: expressed in transfected cells; host or cells: HepG2
assay protocol: FXR mediated transactivation (luciferase reporter) in transfected HepG2 cells
Format: cell-based
assay conditions: each compound at 10 microM, transactivation activity of CDCA on FXR = 100%
Threshold rule: FXR (% of activity in comparison to 10 μM CDCA) greater than or equal to 30% is 1; below that, -1.

Please tell me: is the compound CC[C@@H]1[C@@H](O)[C@@H]2[C@H](CC[C@]3(C)[C@@H]([C@H](C)CCCO)CC[C@@H]23)[C@@]2(C)CC[C@@H](O)C[C@@H]12 [BAR504-6b, 6β-ethyl-3α,7α-dihydroxy-5β-cholan-24-ol] at or over 30% in terms of FXR (% of activity in comparison to 10 μM CDCA)?
1

Is the recorded value of FXR (% of activity in comparison to 10 μM CDCA) equal to or greater than 30% for this compound? CC[C@H]1[C@@H](O)C2C3CC[C@H]([C@H](C)CCCCC(=O)O)[C@@]3(C)CCC2[C@@]2(C)CC[C@@H](O)C[C@@H]12 (stereo partly drawn) [BAR802]
-1

Has CC[C@H]1[C@@H](O)C2C3CC[C@H]([C@H](C)CCCCCOS(=O)(=O)O)[C@@]3(C)CCC2[C@@]2(C)CC[C@@H](O)C[C@@H]12 (stereo partly drawn) [BAR804] a recorded FXR (% of activity in comparison to 10 μM CDCA) greater than or equal to 30%?
1

Is FXR (% of activity in comparison to 10 μM CDCA) at least 30%? Consider C[C@H](CCOS(=O)(=O)[O-])[C@H]1CC[C@H]2[C@@H]3[C@@H](O)C[C@@H]4C[C@H](O)CC[C@]4(C)[C@H]3CC[C@]12C.[Na+] [BAR106]
-1

Given CC[C@@H]1[C@H](O)[C@@H]2[C@H](CC[C@]3(C)[C@@H]([C@H](C)CCCO)CC[C@@H]23)[C@@]2(C)CC[C@@H](O)C[C@@H]12 [BAR501, 6β-ethyl-3α,7β-dihydroxy-5β-cholan-24-ol] , state whether its FXR (% of activity in comparison to 10 μM CDCA) is at least 30%.
-1

Record C[C@H](CCCOS(=O)(=O)O)[C@H]1CCC2C3C(CC[C@@]21C)[C@@]1(C)CCCC[C@H]1C[C@H]3O (stereo partly drawn) [BAR402] ; criterion: FXR (% of activity in comparison to 10 μM CDCA) no lower than 30%. Met?
1

---

assay target: human GPBAR1 (Homo sapiens)
Construct: expressed in transfected cells; host or cells: HEK-293T
Sequence (Q8TDU6 1-330): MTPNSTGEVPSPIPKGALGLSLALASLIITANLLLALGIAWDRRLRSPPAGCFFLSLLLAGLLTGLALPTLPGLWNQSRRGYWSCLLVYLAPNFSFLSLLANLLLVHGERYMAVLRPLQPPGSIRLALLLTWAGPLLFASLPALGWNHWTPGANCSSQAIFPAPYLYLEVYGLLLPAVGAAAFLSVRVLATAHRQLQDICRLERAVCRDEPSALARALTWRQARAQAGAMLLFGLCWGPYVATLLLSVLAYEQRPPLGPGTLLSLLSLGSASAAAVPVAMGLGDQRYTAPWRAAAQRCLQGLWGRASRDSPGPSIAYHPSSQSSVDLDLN
assay protocol: GPBAR1 mediated transactivation (CRE luciferase reporter) in transfected HEK-293T cells
Type: cell-based
assay conditions: each compound at 10 microM, transactivation activity of TLCA on CRE = 100%
Consider the following compounds and their measured GPBAR1 (% of activity in comparison to 10 μM TLCA) readings.
Write down the numeric answer in % and omit the unit.

- compound: "C[C@H](CCCCCO)[C@H]1CCC2C3C(CC[C@@]21C)[C@@]1(C)CC[C@@H](O)C[C@H]1C[C@@H]3O (some centres unmarked) [BAR304]"
  number: 55.1
- compound: "CC[C@H]1[C@@H](O)[C@@H]2[C@H](CC[C@]3(C)[C@@H]([C@H](C)CCCOS(=O)(=O)[O-])CC[C@@H]23)[C@@]2(C)CCCC[C@@H]12.[Na+] [BAR701solf]"
  number: 63.5

GPBAR1 (% of activity in comparison to 10 μM TLCA) for CC[C@H]1[C@@H](O)[C@@H]2[C@H](CC[C@]3(C)[C@@H]([C@H](C)CCCO)CC[C@@H]23)[C@@]2(C)CCCC[C@@H]12 [BAR701, 6α-ethyl-7α-hydroxy-5β-cholan-24-ol] is 50.2

Record summary for CC[C@H]1[C@@H](O)C2C3CC[C@H]([C@H](C)CC(=O)O)[C@@]3(C)CCC2[C@@]2(C)CCCC[C@@H]12 (some centres unmarked) [BARn704] : reported GPBAR1 (% of activity in comparison to 10 μM TLCA) = 64

Form: compound = CC[C@H]1[C@H](O)[C@@H]2[C@H](CC[C@]3(C)[C@@H]([C@H](C)CCCO)CC[C@@H]23)[C@@]2(C)CC[C@H](O)C[C@@H]12 [BAR707, 6α-ethyl-3β,7β-dihydroxy-5β-cholan-24-ol] ; GPBAR1 (% of activity in comparison to 10 μM TLCA) = 65

What the record says about CC[C@H]1[C@@H](O)C2C3CC[C@H]([C@H](C)CC(=O)O)[C@@]3(C)CCC2[C@@]2(C)CC[C@H](O)C[C@@H]12 (some centres unmarked) [BARn710] : GPBAR1 (% of activity in comparison to 10 μM TLCA) is 75

Per the record, CC[C@H]1[C@@H](O)C2C3CC[C@H]([C@H](C)CCCCCO)[C@@]3(C)CCC2[C@@]2(C)CC[C@@H](O)C[C@@H]12 (some centres unmarked) [BAR803] has GPBAR1 (% of activity in comparison to 10 μM TLCA) of 80.5

GPBAR1 (% of activity in comparison to 10 μM TLCA) for CC[C@H]1[C@@H](O)[C@@H]2[C@H](CC[C@]3(C)[C@@H]([C@H](C)CCC(=O)O)CC[C@@H]23)[C@@]2(C)CCCC[C@@H]12 [BAR704] is 27.9

The recorded GPBAR1 (% of activity in comparison to 10 μM TLCA) for entry CC[C@@H]1[C@@H](O)[C@@H]2[C@H](CC[C@]3(C)[C@@H]([C@H](C)CCCO)CC[C@@H]23)[C@@]2(C)CC[C@H](O)C[C@@H]12 [BAR709, 6β-ethyl-3β,7α-dihydroxy-5β-cholan-24-ol] equals 54.2

GPBAR1 (% of activity in comparison to 10 μM TLCA) recorded for this compound, CC[C@H]1[C@@H](O)C2C3CC[C@H]([C@H](C)CC#N)[C@@]3(C)CCC2[C@@]2(C)CC[C@@H](O)C[C@@H]12 (some centres unmarked) [BAR506] , is 80.9

Per the record, CC[C@@H]1[C@H](O)[C@@H]2[C@H](CC[C@]3(C)[C@@H]([C@H](C)CCCO)CC[C@@H]23)[C@@]2(C)CCCC[C@@H]12 [BAR702, 6β-ethyl-7β-hydroxy-5β-cholan-24-ol] has GPBAR1 (% of activity in comparison to 10 μM TLCA) of 35.8
